# fold change of affinity per entry
- Target system: T1, Human CD3eg linker (human)
- T1 construct: Single chain: epsilon and gamma subunits of human CD3 joined by a 29-mer linker, Flag-tag at the C-terminus; also called recombinant human CD3
- T1 chain: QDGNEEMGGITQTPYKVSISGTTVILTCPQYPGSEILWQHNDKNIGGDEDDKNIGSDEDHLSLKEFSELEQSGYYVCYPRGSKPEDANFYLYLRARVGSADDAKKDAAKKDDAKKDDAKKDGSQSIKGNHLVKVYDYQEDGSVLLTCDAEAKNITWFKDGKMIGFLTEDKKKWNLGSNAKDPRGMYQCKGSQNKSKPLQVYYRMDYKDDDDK
- Experimental protocol: Biacore SPR, vs template H183/L072
Observable: fold change of affinity

{"Binder": "H183/L072 VH G26W (antibody, name in Kabat numbering, V domains shown) VH: QVQLVESGGGLVQPGRSLRLSCAASWFTFSNAWMHWVRQAPGKGLEWVAQIKDKGNAYAAYYAPSVKGRFTISRDDSKNSIYLQMNSLKTEDTAVYYCHYVHYASASTVLPAFGVDAWGQGTTVTVSS VL: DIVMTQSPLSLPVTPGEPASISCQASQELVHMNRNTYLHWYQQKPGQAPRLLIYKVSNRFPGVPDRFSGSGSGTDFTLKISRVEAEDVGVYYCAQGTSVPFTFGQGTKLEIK", "Reported value": "0.6 fold"}
{"Binder": "H183/L072 VH A54F (antibody, name in Kabat numbering, V domains shown) VH: QVQLVESGGGLVQPGRSLRLSCAASGFTFSNAWMHWVRQAPGKGLEWVAQIKDKGNFYAAYYAPSVKGRFTISRDDSKNSIYLQMNSLKTEDTAVYYCHYVHYASASTVLPAFGVDAWGQGTTVTVSS VL: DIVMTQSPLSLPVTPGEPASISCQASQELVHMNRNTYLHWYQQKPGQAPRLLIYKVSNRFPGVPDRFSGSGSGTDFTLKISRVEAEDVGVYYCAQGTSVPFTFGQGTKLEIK", "Reported value": "1.2 fold"}
{"Binder": "H183/L072 VH H35N (antibody, name in Kabat numbering, V domains shown) VH: QVQLVESGGGLVQPGRSLRLSCAASGFTFSNAWMNWVRQAPGKGLEWVAQIKDKGNAYAAYYAPSVKGRFTISRDDSKNSIYLQMNSLKTEDTAVYYCHYVHYASASTVLPAFGVDAWGQGTTVTVSS VL: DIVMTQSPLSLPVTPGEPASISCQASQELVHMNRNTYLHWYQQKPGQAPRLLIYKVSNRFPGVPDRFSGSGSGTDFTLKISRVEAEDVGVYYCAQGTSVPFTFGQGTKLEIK", "Reported value": "0 fold"}
